TEST_DESCRIPTION: liver-stage malaria parasite growth inhibition, primary screen, cell-based, HepG2, luciferase luminescence, HepG2 viability (AID 624349);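 also: 100% = mean of DMSO negative control wells on the same plate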
RUN_CONDITIONS: P. berghei liver stage in HepG2, luciferase luminescence, concentration not given here; measured here: HepG2 viability without parasites
METRIC: viability (%)
Kindly provide the numeric value in % only, without the unit symbol.

Consider the worked cases shown below.
molecule="CC1C/C=C/C=C/C=C/C=C/C(O[C@@H]2O[C@H](C)[C@@H](O)[C@H](N)[C@@H]2O)CC2OC(O)(CC(O)CC3OC3/C=C/C(=O)O1)CC(O)C2C(=O)O (some centres not stated)" metric=viability observed_value=102
molecule=O=c1cnn([C@@H]2O[C@H](CO)[C@@H](O)[C@H]2O)c(=O)[nH]1 metric=viability observed_value=79.3
molecule="CC(C)CCCC(C)[C@H]1CCC2C3CC=C4C[C@@H](O)CC[C@]4(C)C3CC[C@@]21C (some centres not stated)" metric=viability observed_value=101
molecule=C/C(=C\C(=O)OCCCCCCCCC(=O)O)C[C@@H]1OC[C@H](C[C@@H]2O[C@H]2[C@@H](C)[C@H](C)O)[C@@H](O)[C@H]1O metric=viability observed_value=116
molecule=Oc1ccc(-c2nc(-c3ccc(F)cc3)c(-c3ccncc3)[nH]2)cc1 metric=viability observed_value=95.1
molecule=O=C1c2c(O)cc(O)cc2O[C@H](c2ccc(O)c(O)c2)[C@@H]1O metric=viability observed_value=72.9
molecule="CCOC(=O)C1(CCCCCCOc2ccc(Cl)cc2)CO1 (configuration not stated)" metric=viability observed_value=89
molecule="CCOC(=O)C(C)(N)Cc1ccc(O)c(O)c1 (configuration not stated)" metric=viability observed_value=103

Input: Requested field: viability. Item: C[C@@H]1CC[C@@]2(OC1)OC1CC3C4CC=C5C[C@@H](O)CC[C@]5(C)C4CC[C@]3(C)C1[C@@H]2C (some centres not stated)
Output: 91.4

Input: Next record, please: CNCC[C@@H](Oc1ccccc1)c1ccccc1
Output: 116

Input: Next record, please: Nc1ccccc1S(N)(=O)=O
Output: 93.8

Input: Next record, please: CC(C)Cc1ccc([C@H](C)C(=O)O)cc1
Output: 95.1

Input: Next record, please: CC(C)N1CCN(c2ccc(OC[C@H]3CO[C@](Cn4cncn4)(c4ccc(Cl)cc4Cl)O3)cc2)CC1
Output: 97.4

Input: Next record, please: Cc1c(C)c2c(c(C)c1O)CCC(C)(CCCC(C)CCCC(C)CCCC(C)C)O2 (configuration not stated)
Output: 90.7

Input: Next record, please: NC[C@@H]1O[C@H](O[C@@H]2[C@@H](CO)OC(O[C@@H]3[C@@H](O)[C@H](N)C[C@H](N)[C@H]3O[C@H]3O[C@H](CO)[C@@H](O)[C@H](O)[C@H]3N)[C@@H]2O)[C@H](N)[C@@H](O)[C@@H]1O (some centres not stated)
Output: 87.6

Input: Next record, please: COc1cc(C[C@@H](CO)[C@H](CO)Cc2ccc(O)c(OC)c2)ccc1O
Output: 77.7

Input: Next record, please: CO[C@H]1C=CO[C@@]2(C)Oc3c(C)c(O)c4c(O)c(c5c(nc6cc(C)ccn65)c4c3C2=O)NC(=O)C(C)=CC=C[C@H](C)[C@H](O)[C@@H](C)[C@@H](O)[C@@H](C)[C@H](OC(C)=O)[C@@H]1C
Output: 78.8

---

TEST_DESCRIPTION: inhibition of 3D7 malaria parasite growth – strain 3D7 (AID 2306);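 also: 0% = DMSO wells and 100% = chloroquine plus artemisinin control wells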
RUN_CONDITIONS: P. falciparum 3D7 erythrocytic growth, LDH absorbance, 72 h; at 2 µM; stronger effect = higher value
Mark true (1) for reported growth inhibition of 90% or greater; mark false (0) for anything smaller.

Solved entries:
molecule=COc1cc(NC(=O)/C=C/c2cc(F)cc(F)c2F)cc(OCCN2CCCCC2)c1 discrete_label="true (1)"
molecule=CCCCCCOc1ccc2ccccc2c1CNCCCCCCNCc1c(OCCCCCC)ccc2ccccc12 discrete_label="false (0)"
molecule=NC(N)=Nc1nc(-c2cccc(NC(=O)Cc3ccccc3)c2)cs1 discrete_label="true (1)"
molecule="CCC(C)c1ccc(NC(=O)C(C)c2ccc([N+](=O)[O-])cc2)cc1 (stereo not given)" discrete_label="true (1)"

Input: Kindly determine if growth inhibition recorded for Cn1ccnc1-c1nc2ccccn2c1NCC(=O)Nc1ccccc1N1CCCCC1 is above or exactly 90%.
Output: false (0)

Input: Next record, please: O=C(c1cc(-c2ccccc2O)on1)N1CCN(C(c2ccccc2)c2ccccc2)CC1
Output: true (1)

Input: Next record, please: N#Cc1cccc(Nc2nccc(NCC(O)c3cccc(C(F)(F)F)c3)n2)c1 (stereo not given)
Output: true (1)

Input: Next record, please: O=C(Nc1cccc(C(F)(F)F)c1)c1ccc(S(=O)(=O)NC2CCN(CC3CCCCC3)CC2)cc1
Output: false (0)

---

TEST_TARGET: Mitogen-activated protein kinase 7 (Homo sapiens) (UniProt Q13164)
Sequence (Q13164 whole entry, looked up, the tested form may be a part): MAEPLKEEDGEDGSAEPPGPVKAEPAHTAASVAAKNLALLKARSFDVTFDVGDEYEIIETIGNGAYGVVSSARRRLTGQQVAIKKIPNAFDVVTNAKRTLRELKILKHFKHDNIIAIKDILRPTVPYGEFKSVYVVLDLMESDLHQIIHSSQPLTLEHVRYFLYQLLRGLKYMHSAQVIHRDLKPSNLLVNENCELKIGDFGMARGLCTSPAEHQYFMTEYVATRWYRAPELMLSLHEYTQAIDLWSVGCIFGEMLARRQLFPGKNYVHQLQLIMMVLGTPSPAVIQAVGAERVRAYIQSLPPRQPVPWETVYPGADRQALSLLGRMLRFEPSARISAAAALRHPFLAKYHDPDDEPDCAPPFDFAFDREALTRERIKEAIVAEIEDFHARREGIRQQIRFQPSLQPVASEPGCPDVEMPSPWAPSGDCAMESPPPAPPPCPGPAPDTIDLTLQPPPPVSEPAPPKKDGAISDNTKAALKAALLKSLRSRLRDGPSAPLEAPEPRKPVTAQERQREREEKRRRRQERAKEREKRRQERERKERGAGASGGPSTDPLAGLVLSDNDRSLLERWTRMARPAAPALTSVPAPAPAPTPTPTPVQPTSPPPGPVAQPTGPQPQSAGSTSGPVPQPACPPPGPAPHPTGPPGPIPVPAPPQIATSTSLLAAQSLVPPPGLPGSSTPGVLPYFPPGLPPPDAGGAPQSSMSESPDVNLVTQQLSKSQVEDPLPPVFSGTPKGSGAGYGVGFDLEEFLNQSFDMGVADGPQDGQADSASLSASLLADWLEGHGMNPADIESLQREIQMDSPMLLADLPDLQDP
TEST_DESCRIPTION: ERK5 transactivation activators in reporter cells, primary screen, cell-based, HTS (AID 1508626);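 also: luciferase driven by Gal4-ERK5 fusion binding five Gal4 sites before minimal TATA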
RUN_CONDITIONS: HeLa Gal4-ERK5 transactivation, 18 h, at 5 µM, stronger effect = higher value
The source made the active and inactive calls.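 Rule for the calls: active = luciferase signal above three times the same-plate solvent-only control wells; inactive = the rest.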
METRIC: luciferase signal

Consider the worked cases shown below.
compound="CC(=O)O[C@@H]1CC2C(C)(C)C(=O)C3OC3[C@]2(C)C2CC[C@@]3(C)[C@H](c4ccoc4)OC(=O)C4OC43[C@@]21C (some centres undefined)" metric="luciferase signal" observed_value="4 AU (inactive)"
compound="CC(=O)OCC(=O)[C@@]1(O)CCC2C3CCC4=CC(=O)C=C[C@]4(C)[C@@]3(F)[C@@H](O)C[C@@]21C (some centres undefined)" metric="luciferase signal" observed_value="76 AU (inactive)"
compound="CC1=CC(=O)C2C(C)(C)CCC[C@]2(C)[C@@]1(O)CCc1ccoc1 (some centres undefined)" metric="luciferase signal" observed_value="128 AU (inactive)"

Now turn to the next compound.
Input: Requested field: luciferase signal. Item: COc1ccc(-c2cc(=O)c3c(O)cc(OC)c(OC)c3o2)c(OC)c1
Output: 108 AU (inactive)

---

As shown below, each of these molecules has a reported red/green cell ratio (normalised) value.
TEST_DESCRIPTION: differential killing of epithelial or mesenchymal cells, primary screen, imaging, PC-3E GFP, TEM4-18 mCherry, co-culture (AID 1345086);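 also: normalised mesenchymal count divided by normalised epithelial count so high means epithelial killing; cells exposed to compound for 72 h before imaging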
RUN_CONDITIONS: imaging cell counts, at 1 µM, actives lie on both sides, counts scaled to control wells, 1 = unselective
# print the numeric value only

molecule=O=C(O)c1c(Cl)nc(Cl)c2ccccc12 observed_value=1.02

Input: Requested field: red/green cell ratio (normalised). Item: C[C@@H]1O[C@@H](O[C@H]2[C@H](Oc3cc(O)c4c(=O)cc(-c5ccc(O)cc5)oc4c3)O[C@H](CO)[C@@H](O)[C@@H]2O)[C@H](O)[C@H](O)[C@H]1O
Output: 1.02

Input: Next record, please: NC(=O)NCCCC(N)C(=O)O (configuration not stated)
Output: 1.05

Input: Next record, please: NCCCC(N)C(=O)O (configuration not stated)
Output: 1.03

Input: Next record, please: O[C@@H]1[C@H](O)CO[C@H]1O
Output: 0.77

Input: Next record, please: CC[C@H](C)/C=C/C1=CC2=C(Cl)C(=O)[C@@]3(C)OC(=O)C(C(=O)[C@@H](C)[C@@H](C)O)=C3C2=CO1
Output: 0.99

Input: Next record, please: O=C(O)c1ccccc1
Output: 1.1

Input: Next record, please: CC(CCC(=O)O)[C@H]1CCC2C3C[C@H](O)[C@@H]4C[C@H](O)CC[C@]4(C)C3CC[C@@]21C (some centres not stated)
Output: 0.83

---

TEST_DESCRIPTION: inhibition of 3D7 malaria parasite growth – strain 3D7 (AID 2306);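 also: 0% = DMSO wells and 100% = chloroquine plus artemisinin control wells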
RUN_CONDITIONS: P. falciparum 3D7 erythrocytic growth, LDH absorbance, 72 h; at 2 µM; stronger effect = higher value
METRIC: growth inhibition (%)
Kindly provide the numeric value in % only, without the unit symbol.

Consider the worked cases shown below.
chemical_structure=O=S(=O)(Nc1cccc(CCN2CCC(N3CCCCC3)CC2)c1)c1cccc2cccnc12 observed_value=98
chemical_structure=Cc1cccc(CN2CCC(CNC(=O)c3cc4c(-c5ccccc5F)nn(C)c4s3)CC2)c1 observed_value=85

Input: Requested field: growth inhibition. Item: Cc1cccc(Nc2nc(NCCCCN)nc3cc[nH]c(=O)c23)c1
Output: 98

Input: Next record, please: CC(=O)Nc1cccc(C(=O)Nc2ccc(-c3cccc(-c4nc5ccc(F)cc5[nH]4)c3)cc2)c1
Output: 96

Input: Next record, please: O=C(Nc1cccc(CN2CCCN(Cc3ccccc3)CC2)c1)c1cc2ccccc2s1
Output: 87

---

As shown below, each of these compounds has a reported inhibition value.
TEST_DESCRIPTION: MDA-MB-436 breast carcinoma cell growth inhibition, synergistic combos for chromothripsis tumors, BGB or cisplatin combos (AID 1671458);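 also: cells exposed for 96 hours; 0% = vehicle DMSO and 100% = killing by high DMSO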
RUN_CONDITIONS: MDA-MB-436 breast carcinoma growth inhibition, drug combinations; measured here: BGB combination; at 0.5 µM; stronger effect = higher value
Kindly provide the numeric value in % only, without the unit symbol.

compound=O=c1cc(-c2cccc3c2Sc2ccccc2S3)oc(N2CCOCC2)c1 observed_value=-22.1

Input: Requested field: inhibition. Item: O=c1ncccn1[C@@H]1O[C@H](CO)[C@@H](O)[C@H]1O
Output: -17.7

Input: Next record, please: CCc1c2c(nc3ccc(O)cc13)-c1cc3c(c(=O)n1C2)COC(=O)[C@]3(O)CC
Output: 67

Input: Next record, please: NC(=O)c1ncn(C2OC(CO)C(O)C2O)n1 (centres undefined)
Output: 2.04
